- target.or.test.system: WT BTK protein (Homo sapiens, UniProt Q06187)
- Construct: measured for intracellular BTK protein levels by Western blotting; endogenous in cells; host or cells: TMD-8 or RAMOS cells
- measurement.protocol: BTK protein degradation assay (Western blotting), WT BTK
- Type: cell-based
- condition.label: concentration range accounting for 50% degradation of WT BTK protein, TMD-8 or RAMOS cells, 24 hours
Provide the recorded DC50 for the entries that follow.

Q: Value lookup for DC50; key = Cc1cccc(C)c1Nc1nn(C)c2nc(Nc3ccc4c(c3)CN(C(=O)C3CC5(CCN(c6ccc7c(c6)C(=O)N(C6CCC(=O)NC6=O)C7=O)CC5)C3)CC4)ncc12 (stereo not drawn)
A: 0.0001 to 0.01 µM

Q: # query: DC50 of entry Cc1cccc(C)c1Nc1nn(C)c2nc(Nc3ccc4c(c3)CN(CC(=O)NCc3ccc5c(c3)CN(C3CCC(=O)NC3=O)C5=O)CC4)ncc12 (stereo not drawn)
A: 0.01 to 1 µM

Q: Consider the compound Cc1cccc(C)c1Nc1nn(C)c2nc(Nc3ccc4c(c3)CN(CCOCCNC(=O)COc3ccc5c(c3)C(=O)N(C3CCC(=O)NC3=O)C5=O)CC4)ncc12 (stereo not drawn) and give its measured DC50.
A: 0.0001 to 0.01 µM

* * *

- target.or.test.system: C481S BTK protein (Homo sapiens, UniProt Q06187, C481S)
- Construct: expressed in transfected cells; host or cells: 293T BTK MUT (C481S) cells
- Sequence (Q06187 whole entry C481S): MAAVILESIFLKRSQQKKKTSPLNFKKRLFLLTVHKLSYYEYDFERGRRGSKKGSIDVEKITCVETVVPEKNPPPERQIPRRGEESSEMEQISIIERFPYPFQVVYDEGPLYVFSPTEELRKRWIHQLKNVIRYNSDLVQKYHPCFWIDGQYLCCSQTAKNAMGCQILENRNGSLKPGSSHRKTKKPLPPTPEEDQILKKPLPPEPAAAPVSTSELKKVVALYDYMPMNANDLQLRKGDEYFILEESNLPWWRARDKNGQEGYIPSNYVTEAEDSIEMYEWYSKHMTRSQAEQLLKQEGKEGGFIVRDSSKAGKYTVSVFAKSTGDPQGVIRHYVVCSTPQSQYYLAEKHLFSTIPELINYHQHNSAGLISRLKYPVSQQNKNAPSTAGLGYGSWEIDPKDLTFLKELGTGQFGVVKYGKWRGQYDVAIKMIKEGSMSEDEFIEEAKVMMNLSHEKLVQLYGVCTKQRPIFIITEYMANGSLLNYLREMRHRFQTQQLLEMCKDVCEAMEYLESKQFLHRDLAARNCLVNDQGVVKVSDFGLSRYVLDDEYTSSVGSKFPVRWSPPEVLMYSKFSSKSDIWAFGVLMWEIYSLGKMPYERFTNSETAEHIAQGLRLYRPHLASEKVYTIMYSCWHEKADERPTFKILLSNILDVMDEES
- measurement.protocol: BTK protein degradation assay (Western blotting), C481S BTK
- Assay type: cell-based
- condition.label: concentration range accounting for 50% degradation of C481S BTK protein, 293T BTK MUT (C481S) cells
Task for the reader: assign each of the following compounds its reported DC50.

Q: Sample Cc1cccc(C)c1Nc1nn(C)c2nc(Nc3ccc4c(c3)CN(CC3CCN(C(=O)COc5ccc6c(c5)C(=O)N(C5CCC(=O)NC5=O)C6=O)CC3)CC4)ncc12 (centres unmarked) [Compound 30] — what was its DC50?
A: 0.01 to 1 µM

Q: Item Cc1cccc(C)c1Nc1nn(C)c2nc(Nc3ccc4c(c3)CN(C(=O)CCOCCOCCOCCOCCNC(=O)COc3ccc5c(c3)C(=O)N(C3CCC(=O)NC3=O)C5=O)CC4)ncc12 (centres unmarked) [Compound 16] has what recorded DC50?
A: 1 to 10 µM

Q: Query (compound): Cc1cccc(C)c1Nc1nn(C)c2nc(Nc3ccc4c(c3)CN(C(=O)CCOCCOCCOCCOCCNC(=O)COc3cccc5c3C(=O)N(C3CCC(=O)NC3=O)C5=O)CC4)ncc12 (centres unmarked) [Compound 17] ; field requested: DC50
A: > 10 µM

Q: What value of DC50 has been reported for the following compound? Cc1cccc(C)c1Nc1nn(C)c2nc(Nc3ccc4c(c3)CN(C(=O)CCCCCNc3cccc5c3C(=O)N(C3CCC(=O)NC3=O)C5=O)CC4)ncc12 (centres unmarked) [Compound 1]
A: > 10 µM

Q: Which DC50 value belongs to Cc1cccc(C)c1Nc1nn(C)c2nc(Nc3ccc4c(c3)CN(C(=O)[C@H]3CCCN3C(=O)C3CCN(c5ccc6c(c5)C(=O)N(C5CCC(=O)NC5=O)C6=O)CC3)CC4)ncc12 (some centres unmarked) [Compound 26] ?
A: 1 to 10 µM

* * *

- target.or.test.system: C481S BTK protein (Homo sapiens, UniProt Q06187, C481S)
- Construct: expressed in transfected cells; host or cells: 293T BTK MUT (C481S) cells
- measurement.protocol: BTK protein degradation assay (Western blotting), C481S BTK
- Type: cell-based
- condition.label: concentration range accounting for 50% degradation of C481S BTK protein, 293T BTK MUT (C481S) cells
outcome.measure: DC50

Q: // query DC50 value for entry Cc1cccc(C)c1Nc1nn(C)c2nc(Nc3ccc4c(c3)CN(CCOCCNC(=O)CN3CCN(c5ccc6c(c5)C(=O)N(C5CCC(=O)NC5=O)C6=O)CC3)CC4)ncc12 (centres unmarked)
A: 1000 to 10000 nM

Q: Record request: DC50 value, item Cc1cccc(Cl)c1Nc1nn(C)c2nc(Nc3ccc4c(c3)CN(CC3CCN(c5ccc6c(c5)C(=O)N(C5CCC(=O)NC5=O)C6=O)CC3)CC4)ncc12 (centres unmarked)
A: 0.1 to 10 nM

Q: Would you kindly share the measured DC50 for Cc1cccc(C)c1Nc1nn(C)c2nc(Nc3ccc4c(c3)CN(C[C@H]3CCN(c5ccc6c(c5)C(=O)N(C5CCC(=O)NC5=O)C6=O)C3)CC4)ncc12 (some centres unmarked) ?
A: 0.1 to 10 nM

Q: Query (compound): Cc1cccc(C)c1Nc1nn(C)c2nc(Nc3ccc4c(c3)CN(CCOCCNC(=O)COc3ccc5c(c3)C(=O)N(C3CCC(=O)NC3=O)C5=O)CC4)ncc12 (centres unmarked) ; field requested: DC50
A: 1000 to 10000 nM

Q: Bench note: what DC50 did Cc1cccc(C)c1Nc1nn(C)c2nc(Nc3ccc4c(c3)CN(CC3CCN(C(=O)C5CCN(c6cccc7nnn(C8CCC(=O)NC8=O)c(=O)c67)CC5)CC3)CC4)ncc12 (centres unmarked) show?
A: 10 to 1000 nM

* * *

- target.or.test.system: WT BTK protein (Homo sapiens, UniProt Q06187)
- Construct: measured for intracellular BTK protein levels by Western blotting; endogenous in cells; host or cells: TMD-8 or RAMOS cells
- measurement.protocol: BTK protein degradation assay (Western blotting), WT BTK
- Type: cell-based
- condition.label: concentration range accounting for 50% degradation of WT BTK protein, TMD-8 or RAMOS cells, 24 hours
outcome.measure: DC50

Q: Hi! What's the reported DC50 for Cc1cccc(C)c1Nc1nn(C)c2nc(Nc3ccc4c(c3)CN(C(=O)C3(F)CCN(C(=O)COc5ccc6c(c5)C(=O)N(C5CCC(=O)NC5=O)C6=O)CC3)CC4)ncc12 (stereo not drawn) on WT BTK protein (Homo sapiens, UniProt Q06187)?
A: 0.1 to 10 nM

Q: Identify the measured DC50 of Cc1cccc(C)c1Nc1nn(C)c2nc(Nc3ccc4c(c3)CN(C(=O)[C@H]3CC[C@H](OC5CCN(c6ccc7c(c6)C(=O)N(C6CCC(=O)NC6=O)C7=O)CC5)CC3)CC4)ncc12 (stereo partly drawn) for WT BTK protein (Homo sapiens, UniProt Q06187).
A: 0.1 to 10 nM

Q: What is its DC50 for WT BTK protein (Homo sapiens, UniProt Q06187)? Entry: Cc1cccc(C)c1Nc1nn(C)c2nc(Nc3ccc(C4CCN(CC5CCN(c6ccc7c(c6)C(=O)N(C6CCC(=O)NC6=O)C7=O)CC5)CC4)cc3)ncc12 (stereo not drawn)
A: 0.1 to 10 nM

Q: DC50 of Cc1cccc(C)c1Nc1nn(C)c2nc(Nc3ccc4c(c3)CN(C3CN(CC5CN(c6ccc7c(c6)C(=O)N(C6CCC(=O)NC6=O)C7=O)C5)C3)CC4)ncc12 (stereo not drawn) on WT BTK protein (Homo sapiens, UniProt Q06187)?
A: 0.1 to 10 nM

Q: Give recorded DC50 with WT BTK protein (Homo sapiens, UniProt Q06187) for the following molecule: Cc1cccc(C)c1Nc1nn(C)c2nc(Nc3ccc(N4CCN(C[C@@H]5CCN(c6ccc7c(c6)C(=O)N(C6CCC(=O)NC6=O)C7=O)C5)CC4)nc3)ncc12 (stereo partly drawn)
A: 0.1 to 10 nM

Q: Any idea what DC50 came out for Cc1cccc(C)c1Nc1nn(C)c2nc(Nc3ccc(CCNC(=O)C4CCN(C(=O)Nc5ccc6c(c5)CN(C5CCC(=O)NC5=O)C6=O)CC4)cc3)ncc12 (stereo not drawn) on WT BTK protein (Homo sapiens, UniProt Q06187)?
A: 10 to 1000 nM

Q: Record lookup: for WT BTK protein (Homo sapiens, UniProt Q06187), what DC50 belongs to Cc1cccc(C)c1Nc1nn(C)c2nc(Nc3ccc4c(c3)CN(C(=O)CN3CCN(c5ccc6c(c5)CN(C5CCC(=O)NC5=O)C6=O)CC3)CC4)ncc12 (stereo not drawn) ?
A: 0.1 to 10 nM

Q: Request: DC50, test system WT BTK protein (Homo sapiens, UniProt Q06187), entry Cc1cccc(C)c1Nc1nn(C)c2nc(Nc3cnc(N4CCN(CC5CCN(c6ccc7c(c6)C(=O)N(C6CCC(=O)NC6=O)C7=O)CC5)CC4)nc3)ncc12 (stereo not drawn)
A: 0.1 to 10 nM

Q: Short answer please: DC50, WT BTK protein (Homo sapiens, UniProt Q06187), entry Cc1cccc(C)c1Nc1nn(C)c2nc(Nc3ccc4c(c3)CN(C(=O)CC3CCN(c5ccc6c(c5)C(=O)N(C5CCC(=O)NC5=O)C6=O)CC3)CC4)ncc12 (stereo not drawn)
A: 0.1 to 10 nM

Q: Provide the documented DC50 with WT BTK protein (Homo sapiens, UniProt Q06187) as the system for Cc1cccc(C)c1Nc1nn(C)c2nc(Nc3ccc4c(c3)CN(CC3CCN(c5ccc(C(=O)NC6CCC(=O)NC6=O)nc5)CC3)CC4)ncc12 (stereo not drawn)
A: 0.1 to 10 nM

Q: Can you look up DC50 on WT BTK protein (Homo sapiens, UniProt Q06187) for COc1ccc(Nc2nn(C)c3nc(Nc4ccc5c(c4)CN(CC4CCN(c6ccc7c(c6)C(=O)N(C6CCC(=O)NC6=O)C7=O)CC4)CC5)ncc23)c(C)c1 (stereo not drawn) ?
A: 1000 to 10000 nM

Q: API: value(readout=DC50, system=WT BTK protein (Homo sapiens, UniProt Q06187)) for record Cc1cccc(C)c1Nc1nn(C)c2nc(Nc3ccc4c(c3)C(C)N(CC3CCN(c5ccc6c(c5)C(=O)N(C5CCC(=O)NC5=O)C6=O)CC3)CC4)ncc12 (stereo not drawn)
A: 10 to 1000 nM

Q: Recorded DC50 for Cc1cccc(C)c1Nc1nn(C)c2nc(Nc3ccc4c(c3)CN(C(=O)[C@@H]3CCCN3C(=O)CNc3ccc5c(c3)C(=O)N(C3CCC(=O)NC3=O)C5=O)CC4)ncc12 (stereo partly drawn) with WT BTK protein (Homo sapiens, UniProt Q06187), please?
A: 0.1 to 10 nM

Q: Any idea what DC50 came out for Cc1cccc(C)c1Nc1nn(C)c2nc(Nc3ccc4c(c3)CN(C3CCN(C[C@@H]5CCCN(c6ccc7c(c6)C(=O)N(C6CCC(=O)NC6=O)C7=O)C5)CC3)CC4)ncc12 (stereo partly drawn) on WT BTK protein (Homo sapiens, UniProt Q06187)?
A: 0.1 to 10 nM

Q: For the record Cc1cccc(C)c1Nc1nn(C)c2nc(Nc3ccc4c(c3)CN(C(=O)CCCCCCCCCCCNc3cccc5c3C(=O)N(C3CCC(=O)NC3=O)C5=O)CC4)ncc12 (stereo not drawn) , what value of DC50 is listed for WT BTK protein (Homo sapiens, UniProt Q06187)?
A: 0.1 to 10 nM

Q: Which measured DC50 belongs to Cc1cccc(C)c1Nc1nn(C)c2nc(Nc3ccc4c(c3)CN(C(=S)C3CCN(C(=O)C5CCN(c6ccc7c(c6)C(=O)N(C6CCC(=O)NC6=O)C7=O)CC5)CC3)CC4)ncc12 (stereo not drawn) , tested on WT BTK protein (Homo sapiens, UniProt Q06187)?
A: 0.1 to 10 nM

Q: Test system WT BTK protein (Homo sapiens, UniProt Q06187); read-out DC50; what value for Cc1cccc(C)c1Nc1nn(C)c2nc(Nc3ccc4c(c3)CN(C(=O)COc3ccc5c(c3)C(=O)N(C3CCC(=O)NC3=O)C5=O)CC4)ncc12 (stereo not drawn) ?
A: 10 to 1000 nM

Q: WT BTK protein (Homo sapiens, UniProt Q06187) / DC50 / Cc1cccc(C)c1Nc1nn(C)c2nc(Nc3ccc(C4CCN(C[C@H]5CCN(c6ccc7c(c6)C(=O)N(C6CCC(=O)NC6=O)C7=O)C5)CC4)cc3)ncc12 (stereo partly drawn) : value?
A: 0.1 to 10 nM

Q: # query: DC50 | item Cc1cccc(C)c1Nc1nn(C)c2nc(Nc3ccc4c(c3)CN(C(=O)CN3CCC(Oc5ccc6c(c5)C(=O)N(C5CCC(=O)NC5=O)C6)CC3)CC4)ncc12 (stereo not drawn) | system: WT BTK protein (Homo sapiens, UniProt Q06187)
A: 1000 to 10000 nM

Q: Look up DC50 with WT BTK protein (Homo sapiens, UniProt Q06187) for this molecule: Cn1nc(Nc2c(Cl)cccc2Br)c2cnc(Nc3ccc4c(c3)CN(CC3CCN(c5ccc6c(c5)C(=O)N(C5CCC(=O)NC5=O)C6=O)CC3)CC4)nc21 (stereo not drawn)
A: 0.1 to 10 nM

Q: Please state recorded DC50 (tested on WT BTK protein (Homo sapiens, UniProt Q06187)) of Cc1cccc(C)c1Nc1nn(C)c2nc(Nc3ccc4c(c3)CN(CC3CCN(C(=O)CNc5ccc6nnn(C7CCC(=O)NC7=O)c(=O)c6c5)CC3)CC4)ncc12 (stereo not drawn)
A: 0.1 to 10 nM
